These measurements were taken from ChEMBL document CHEMBL2401692.

TEST TARGET: Fibroblast growth factor receptor 3 (Homo sapiens)
Sequence (P22607 23-806 limits assumed): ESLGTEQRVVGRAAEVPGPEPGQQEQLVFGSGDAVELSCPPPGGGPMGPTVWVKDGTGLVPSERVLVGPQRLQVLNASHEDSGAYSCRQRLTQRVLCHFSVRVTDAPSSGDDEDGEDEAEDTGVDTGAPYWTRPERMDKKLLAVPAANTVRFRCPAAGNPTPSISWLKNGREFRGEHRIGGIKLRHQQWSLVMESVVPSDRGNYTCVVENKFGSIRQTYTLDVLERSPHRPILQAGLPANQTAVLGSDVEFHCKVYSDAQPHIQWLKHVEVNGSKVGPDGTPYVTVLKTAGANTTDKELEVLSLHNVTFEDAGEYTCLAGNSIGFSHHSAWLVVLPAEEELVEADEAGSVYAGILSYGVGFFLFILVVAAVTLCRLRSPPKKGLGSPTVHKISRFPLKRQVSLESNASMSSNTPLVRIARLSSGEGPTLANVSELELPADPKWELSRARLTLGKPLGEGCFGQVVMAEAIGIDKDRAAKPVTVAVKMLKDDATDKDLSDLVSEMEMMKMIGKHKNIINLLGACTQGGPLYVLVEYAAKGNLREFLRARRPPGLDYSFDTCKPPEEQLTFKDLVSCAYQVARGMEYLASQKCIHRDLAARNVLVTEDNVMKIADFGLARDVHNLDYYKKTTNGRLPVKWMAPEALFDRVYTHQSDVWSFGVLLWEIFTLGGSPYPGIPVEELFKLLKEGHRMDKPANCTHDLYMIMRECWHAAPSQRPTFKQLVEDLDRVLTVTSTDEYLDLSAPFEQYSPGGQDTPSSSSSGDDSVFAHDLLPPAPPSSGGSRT
ASSAY OVERVIEW: Inhibition of TEL-fused FGFR3 (unknown origin) by cell-based assay
REPORTED ENDPOINT: IC50

*Q* Which IC50 reading was recorded for the compound Cc1cc(Nc2ncc(Cl)c(Nc3ccccc3S(=O)(=O)C(C)C)n2)c(OC(C)C)cc1C1CCNCC1 ?
*A* > 10 µM

* * *

ASSAY OVERVIEW: Toxicity in po dosed Rowett nude rat xenografted with human KARPAS299 cells
Type: organism-based, KARPAS-299
CONDITION NOTES: in vivo
REPORTED ENDPOINT: MTD (mg/kg)
Please reply with the bare figure in mg/kg and do not write the unit itself.

*Q* Which MTD reading was recorded for the compound Cc1cc(Nc2ncc(Cl)c(Nc3ccccc3S(=O)(=O)C(C)C)n2)c(OC(C)C)cc1C1CCNCC1 [CERITINIB] ?
*A* 6.25

* * *

ASSAY OVERVIEW: Tmax in BALB/c mouse at 5 mg/kg, iv
Assay type: ADME, organism-based
Design: dose 5 mg/kg, route intravenous
CONDITION NOTES: in vivo
REPORTED ENDPOINT: Tmax (min)
Please reply with the bare figure in min and do not write the unit itself.

*Q* Which Tmax reading was recorded for the compound Cc1cc(Nc2ncc(Cl)c(Nc3ccccc3S(=O)(=O)C(C)C)n2)c(OC(C)C)cc1C1CCNCC1 ?
*A* 1.8

* * *

ASSAY OVERVIEW: Cmax in Beagle dog at 5 mg/kg, iv
Type: ADME, organism-based, Canis lupus familiaris
Parameters: dose 5 mg/kg, route intravenous
CONDITION NOTES: in vivo
REPORTED ENDPOINT: Cmax (nM)
Please reply with the bare figure in nM and do not write the unit itself.

*Q* Which Cmax reading was recorded for the molecule Cc1cc(Nc2ncc(Cl)c(Nc3ccccc3S(=O)(=O)C(C)C)n2)c(OC(C)C)cc1C1CCNCC1 ?
*A* 2330

* * *

TEST TARGET: Transcription factor ETV6 (Homo sapiens)
Sequence (P41212 whole entry): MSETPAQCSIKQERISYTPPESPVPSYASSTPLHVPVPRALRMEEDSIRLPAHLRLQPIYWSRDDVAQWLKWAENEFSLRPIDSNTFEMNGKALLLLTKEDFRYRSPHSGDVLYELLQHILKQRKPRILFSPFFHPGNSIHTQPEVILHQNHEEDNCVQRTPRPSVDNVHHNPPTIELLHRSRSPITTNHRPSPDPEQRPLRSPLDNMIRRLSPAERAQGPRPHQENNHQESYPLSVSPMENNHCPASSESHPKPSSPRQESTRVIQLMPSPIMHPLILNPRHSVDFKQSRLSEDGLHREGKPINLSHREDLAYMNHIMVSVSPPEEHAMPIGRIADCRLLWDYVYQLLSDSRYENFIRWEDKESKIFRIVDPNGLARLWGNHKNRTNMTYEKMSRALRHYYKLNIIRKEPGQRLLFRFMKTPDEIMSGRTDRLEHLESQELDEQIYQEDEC
REPORTED ENDPOINT: IC50 (µM)
Please reply with the bare figure in µM and do not write the unit itself.

*Q* Which IC50 reading was recorded for the molecule Cc1cc(Nc2ncc(Cl)c(Nc3ccccc3S(=O)(=O)C(C)C)n2)c(OC(C)C)cc1C1CCNCC1 ?
*A* 3.25

* * *

The compounds listed here are annotated with their microsomal CLint.
ASSAY OVERVIEW: Intrinsic clearance in human liver microsomes
Assay type: ADME, Microsome
CONDITION NOTES: read-out: CLH
Please reply with the bare figure in µL/min/mg and do not write the unit itself.

Worked examples, 5 compounds total:
record_smiles=Cc1cc(Nc2ncc(Cl)c(Nc3ccccc3S(=O)(=O)C(C)C)n2)c(OC(C)C)cc1C1CCN(CCO)CC1 test_result=15
record_smiles=CC(C)Oc1nc(C2CCNCC2)ncc1Nc1ncc(Cl)c(Nc2ccccc2S(=O)(=O)C(C)C)n1 test_result=16
record_smiles=Cc1cc(Nc2ncc(C)c(Nc3ccccc3S(=O)(=O)C(C)C)n2)c(OC(C)C)cc1C1CCN(C)CC1 test_result=8
record_smiles=Cc1cc(Nc2ncc(Cl)c(Nc3ccccc3S(=O)(=O)C(C)C)n2)c(OC(C)C)cc1C1CCN(C)CC1 test_result=17
record_smiles=Cc1cc(Nc2ncc(Cl)c(Nc3ccccc3S(=O)(=O)C(C)C)n2)c(OC(C)C)cc1C1CCN(C(=O)CN(C)C)CC1 test_result=46

*Q* Which microsomal CLint reading was recorded for the compound CC(C)Oc1cc(C2CCNCC2)ccc1Nc1ncc(Cl)c(Nc2ccccc2S(=O)(=O)C(C)C)n1 ?
*A* 15

*Q* Which microsomal CLint reading was recorded for the compound Cc1cc(Nc2ncc(Cl)c(Nc3ccccc3S(=O)(=O)C(C)C)n2)c(OC(C)C)cc1C1CCNCC1 ?
*A* 19

*Q* Which microsomal CLint reading was recorded for the compound Cc1cc(Nc2ncc(Cl)c(Nc3ccccc3S(=O)(=O)C(C)C)n2)c(OC2CCC2)cc1C1CCNCC1 ?
*A* 15

* * *

ASSAY OVERVIEW: Cmax in BALB/c mouse at 5 mg/kg, iv
Type: ADME, organism-based
Set-up: dose 5 mg/kg, route intravenous
CONDITION NOTES: in vivo
REPORTED ENDPOINT: Cmax (nM)
Please reply with the bare figure in nM and do not write the unit itself.

*Q* Which Cmax reading was recorded for the compound Cc1cc(Nc2ncc(Cl)c(Nc3ccccc3S(=O)(=O)C(C)C)n2)c(OC(C)C)cc1C1CCNCC1 ?
*A* 1760

* * *

TEST TARGET: Tyrosine-protein kinase ZAP-70 (Homo sapiens)
Sequence (P43403 whole entry): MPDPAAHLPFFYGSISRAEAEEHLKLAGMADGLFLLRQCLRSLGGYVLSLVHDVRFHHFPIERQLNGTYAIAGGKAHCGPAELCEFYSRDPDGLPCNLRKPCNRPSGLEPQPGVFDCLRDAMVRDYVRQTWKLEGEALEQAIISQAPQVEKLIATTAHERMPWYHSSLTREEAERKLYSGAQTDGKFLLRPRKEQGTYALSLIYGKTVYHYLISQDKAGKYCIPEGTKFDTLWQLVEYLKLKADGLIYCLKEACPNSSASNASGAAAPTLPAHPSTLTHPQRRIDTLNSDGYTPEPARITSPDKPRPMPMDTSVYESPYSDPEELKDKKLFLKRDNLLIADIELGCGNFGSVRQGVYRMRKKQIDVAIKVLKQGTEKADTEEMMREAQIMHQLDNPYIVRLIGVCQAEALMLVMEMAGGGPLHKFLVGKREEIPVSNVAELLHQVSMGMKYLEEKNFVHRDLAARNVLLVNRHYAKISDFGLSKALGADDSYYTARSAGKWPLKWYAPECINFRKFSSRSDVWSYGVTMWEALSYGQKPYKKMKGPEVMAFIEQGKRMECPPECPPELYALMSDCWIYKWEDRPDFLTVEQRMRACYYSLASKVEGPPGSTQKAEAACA
REPORTED ENDPOINT: pIC50
Please note pIC50 is a logarithmic value: minus log10 of concentration in mol/L. Answer with that number alone.

*Q* Which pIC50 reading was recorded for the compound Cc1cc(Nc2ncc(Cl)c(Nc3ccccc3S(=O)(=O)C(C)C)n2)c(OC(C)C)cc1C1CCNCC1 ?
*A* 5.01

* * *

ASSAY OVERVIEW: Tmax in Sprague-Dawley rat at 3 mg/kg, iv
Type: ADME, organism-based
Set-up: dose 3 mg/kg, route intravenous
CONDITION NOTES: in vivo
REPORTED ENDPOINT: Tmax (min)
Please reply with the bare figure in min and do not write the unit itself.

*Q* Which Tmax reading was recorded for the molecule Cc1cc(Nc2ncc(Cl)c(Nc3ccccc3S(=O)(=O)C(C)C)n2)c(OC(C)C)cc1C1CCNCC1 ?
*A* 1.8

* * *

TEST TARGET: Testis-specific serine/threonine-protein kinase 1 (Homo sapiens)
Sequence (Q9BXA7 whole entry): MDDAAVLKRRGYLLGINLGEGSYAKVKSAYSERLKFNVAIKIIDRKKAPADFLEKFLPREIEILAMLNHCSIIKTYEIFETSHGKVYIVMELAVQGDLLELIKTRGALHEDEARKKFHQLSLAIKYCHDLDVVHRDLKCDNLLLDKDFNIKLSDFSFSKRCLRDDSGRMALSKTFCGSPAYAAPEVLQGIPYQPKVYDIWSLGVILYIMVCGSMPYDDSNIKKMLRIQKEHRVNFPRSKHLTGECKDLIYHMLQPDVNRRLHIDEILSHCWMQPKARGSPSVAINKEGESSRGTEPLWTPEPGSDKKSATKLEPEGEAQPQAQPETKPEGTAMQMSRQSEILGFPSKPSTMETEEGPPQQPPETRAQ
REPORTED ENDPOINT: IC50 (nM)
Please reply with the bare figure in nM and do not write the unit itself.

*Q* Which IC50 reading was recorded for the compound Cc1cc(Nc2ncc(Cl)c(Nc3ccccc3S(=O)(=O)C(C)C)n2)c(OC(C)C)cc1C1CCNCC1 ?
*A* 23

* * *

TEST TARGET: Cyclin-dependent kinase 4 (Homo sapiens)
Sequence (P11802 whole entry): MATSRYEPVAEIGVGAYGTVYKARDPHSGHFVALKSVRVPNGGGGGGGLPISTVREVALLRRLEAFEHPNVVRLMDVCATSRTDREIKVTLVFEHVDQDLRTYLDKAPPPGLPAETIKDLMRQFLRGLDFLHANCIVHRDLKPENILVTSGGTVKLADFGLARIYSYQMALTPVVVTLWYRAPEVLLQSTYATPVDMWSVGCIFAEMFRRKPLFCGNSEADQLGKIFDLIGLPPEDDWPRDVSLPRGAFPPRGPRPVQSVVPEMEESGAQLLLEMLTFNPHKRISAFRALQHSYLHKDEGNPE
REPORTED ENDPOINT: pIC50
Please note pIC50 is a logarithmic value: minus log10 of concentration in mol/L. Answer with that number alone.

*Q* Record lookup: for Cyclin-dependent kinase 4 (Homo sapiens), what pIC50 belongs to Cc1cc(Nc2ncc(Cl)c(Nc3ccccc3S(=O)(=O)C(C)C)n2)c(OC(C)C)cc1C1CCNCC1 [CERITINIB] ?
*A* 5.33

* * *

ASSAY OVERVIEW: Plasma clearance in Beagle dog at 5 mg/kg, iv
Format: ADME, organism-based, Canis lupus familiaris
Parameters: dose 5 mg/kg, route intravenous
REPORTED ENDPOINT: clearance (mL/min/kg)
Please reply with the bare figure in mL/min/kg and do not write the unit itself.

*Q* Which clearance reading was recorded for the compound Cc1cc(Nc2ncc(Cl)c(Nc3ccccc3S(=O)(=O)C(C)C)n2)c(OC(C)C)cc1C1CCNCC1 ?
*A* 9.2

* * *

ASSAY OVERVIEW: Tmax in BALB/c mouse at 20 mg/kg, po
Type: ADME, organism-based
Parameters: dose 20 mg/kg, route oral
CONDITION NOTES: in vivo
REPORTED ENDPOINT: Tmax (h)
Please reply with the bare figure in h and do not write the unit itself.

*Q* Which Tmax reading was recorded for the compound Cc1cc(Nc2ncc(Cl)c(Nc3ccccc3S(=O)(=O)C(C)C)n2)c(OC(C)C)cc1C1CCNCC1 [CERITINIB] ?
*A* 7

* * *

TEST TARGET: Tyrosine-protein kinase Lyn (Homo sapiens, UniProt P07948)
Sequence (P07948 whole entry, the tested form may be a part): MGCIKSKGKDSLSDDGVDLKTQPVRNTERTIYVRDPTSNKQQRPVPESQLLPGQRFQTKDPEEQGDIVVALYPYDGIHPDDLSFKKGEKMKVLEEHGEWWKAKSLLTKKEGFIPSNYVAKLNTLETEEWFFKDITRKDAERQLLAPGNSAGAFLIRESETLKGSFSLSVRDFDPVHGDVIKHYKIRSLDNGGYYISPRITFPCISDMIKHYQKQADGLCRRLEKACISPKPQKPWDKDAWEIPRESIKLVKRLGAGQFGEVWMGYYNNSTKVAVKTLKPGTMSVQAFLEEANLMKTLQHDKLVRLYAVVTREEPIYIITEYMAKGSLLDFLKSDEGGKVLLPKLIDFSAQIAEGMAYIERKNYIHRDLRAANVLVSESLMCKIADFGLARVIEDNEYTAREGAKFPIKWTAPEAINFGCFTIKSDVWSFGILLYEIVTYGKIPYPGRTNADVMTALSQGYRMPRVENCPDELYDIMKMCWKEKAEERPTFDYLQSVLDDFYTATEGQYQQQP
ASSAY OVERVIEW: Inhibition of TEL-fused LYN (unknown origin) by cell-based assay
REPORTED ENDPOINT: pIC50
Please note pIC50 is a logarithmic value: minus log10 of concentration in mol/L. Answer with that number alone.

*Q* Which pIC50 reading was recorded for the molecule Cc1cc(Nc2ncc(Cl)c(Nc3ccccc3S(=O)(=O)C(C)C)n2)c(OC(C)C)cc1C1CCNCC1 ?
*A* 5.64
